Target: hQC (Homo sapiens)
Sequence (Q16769 29-361): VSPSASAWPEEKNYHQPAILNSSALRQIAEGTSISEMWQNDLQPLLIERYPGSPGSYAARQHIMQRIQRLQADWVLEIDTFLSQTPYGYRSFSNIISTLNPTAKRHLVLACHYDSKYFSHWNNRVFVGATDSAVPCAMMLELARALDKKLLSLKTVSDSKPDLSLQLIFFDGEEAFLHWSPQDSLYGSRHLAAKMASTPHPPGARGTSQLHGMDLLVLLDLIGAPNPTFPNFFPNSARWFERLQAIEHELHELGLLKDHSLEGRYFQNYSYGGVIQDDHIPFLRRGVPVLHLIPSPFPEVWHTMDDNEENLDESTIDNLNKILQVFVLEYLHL
Experiment: Fluorometric assay of glutaminyl cyclase (QC) inhibition, H-Gln-βNA or H-Gln-AMC substrate
Format: biochemical
Details: read-out: IC50
Define the label as 1.0 when IC50 is strictly less than 5 µM and as 0.0 in all remaining cases.

Check out these entries, answers already filled in.
{"Molecule": "CCCCC1C(=Nc2ccc(Oc3ccccc3)cc2)NC(=O)N1CCCn1ccnc1 (stereo not drawn)", "Assigned class": 0.0}
{"Molecule": "S=C1N/C(=N/Cn2nnc3ccccc32)C(c2ccc3ccccc3c2)N1c1ccc2[nH]cnc2c1 (stereo not drawn)", "Assigned class": 1.0}
{"Molecule": "O=C1NC(=NCC2CCCO2)C(c2cccc(F)c2F)N1CCCn1ccnc1 (stereo not drawn)", "Assigned class": 0.0}
{"Molecule": "O=C1N/C(=N/Cc2ccc3[nH]ccc3c2)C(c2cc(Br)cc(Br)c2)N1c1ccc2nc[nH]c2c1 (stereo not drawn)", "Assigned class": 1.0}
{"Molecule": "O=C(C/N=C1/NC(=O)N(CCCn2ccnc2)C1c1ccco1)N1CCc2ccccc2C1 (stereo not drawn)", "Assigned class": 0.0}
{"Molecule": "O=C(CN=C1NC(=O)N(c2ccc3[nH]cnc3c2)C1c1ccc2[nH]ccc2c1)N1CCC(O)C1 (stereo not drawn)", "Assigned class": 1.0}
{"Molecule": "O=C1N/C(=N\\CCC(c2ccccc2)c2ccccc2)C(C2CCC=CO2)N1CCCn1ccnc1 (stereo not drawn)", "Assigned class": 0.0}
{"Molecule": "S=C1N/C(=N/CCc2cccs2)C(c2cc3ccccc3s2)N1c1ccc2[nH]cnc2c1 (stereo not drawn)", "Assigned class": 1.0}

Bench note: check whether O=C1N/C(=N/CCc2cccs2)C(c2cc3c(cc2Br)OCO3)N1c1ccc2nc[nH]c2c1 (stereo not drawn) shows IC50 below 5 µM
1.0

Threshold test, IC50 < 5 µM: O=C1N/C(=N/CCCc2ccccc2)C(c2cc3ccccc3s2)N1c1ccc2[nH]cnc2c1 (stereo not drawn)
1.0

Below 5 µM on IC50? Entry O=C(C/N=C1\NC(=S)N(c2ccc3[nH]cnc3c2)C1c1cc(Br)cc(Br)c1)N1CCSCC1 (stereo not drawn)
1.0

Is IC50 strictly under 5 µM for the entry COC(=O)C(C)N=C1NC(=O)N(c2ccc3[nH]cnc3c2)C1c1c(F)cc(Cl)cc1F (stereo not drawn) ?
1.0

In plain terms, does O=C1N/C(=N/Cn2nnc3ccccc32)C(c2ccc3[nH]ccc3c2)N1c1ccc2[nH]cnc2c1 (stereo not drawn) come in under 5 µM for IC50?
1.0

Numbers sourced from patent US20080221086A1.
